test system: T cells; assay: T cell proliferation (Test 1), thymidine uptake of Concanavalin A-treated T cells; format: cell-based, rat (female Fisher 344); settings: Rattus norvegicus, 72 h, concentration of compound 0.1 μg/ml, 3 days, untreated cells = 100, read-out: Rate of stimulating proliferation of T cells
Please respond with TRUE when measured activity at 0.1 µg/mL is strictly beneath 200%, and with FALSE in all other cases.

query: Hello, I'm reviewing records and need to know if activity at 0.1 µg/mL of CSCC(NC(=O)C(O)C(C)C(C)O)C(=O)OCc1ccccc1 (centres unmarked) [Compound 19] is below 200%. Could you check?
result: FALSE

query: Hello, I'm reviewing records and need to know if activity at 0.1 µg/mL of CC(C)C(O)C(=O)NC(C)(CO)C(=O)O (centres unmarked) [Compound 7] is below 200%. Could you check?
result: FALSE

query: Hello, I'm reviewing records and need to know if activity at 0.1 µg/mL of CCCCOC(=O)C(C)(CO)NC(=O)CCC(C)O (centres unmarked) [Compound 4] is below 200%. Could you check?
result: TRUE

query: Hello, I'm reviewing records and need to know if activity at 0.1 µg/mL of CCC(C)CC(=O)NC(C)(CO)C(=O)OCc1ccccc1 (centres unmarked) [Compound 2] is below 200%. Could you check?
result: FALSE

query: Hello, I'm reviewing records and need to know if activity at 0.1 µg/mL of COC(=O)C(C)(CO)NC(=O)C(O)C(C)(C)CO (centres unmarked) [Compound 14] is below 200%. Could you check?
result: FALSE
